What ΔTm was measured for each of the following?
- Target Under Test: Bromodomain-containing protein 3 (Homo sapiens) (UniProt Q15059)
- Sequence (Q15059 2-726 limits assumed): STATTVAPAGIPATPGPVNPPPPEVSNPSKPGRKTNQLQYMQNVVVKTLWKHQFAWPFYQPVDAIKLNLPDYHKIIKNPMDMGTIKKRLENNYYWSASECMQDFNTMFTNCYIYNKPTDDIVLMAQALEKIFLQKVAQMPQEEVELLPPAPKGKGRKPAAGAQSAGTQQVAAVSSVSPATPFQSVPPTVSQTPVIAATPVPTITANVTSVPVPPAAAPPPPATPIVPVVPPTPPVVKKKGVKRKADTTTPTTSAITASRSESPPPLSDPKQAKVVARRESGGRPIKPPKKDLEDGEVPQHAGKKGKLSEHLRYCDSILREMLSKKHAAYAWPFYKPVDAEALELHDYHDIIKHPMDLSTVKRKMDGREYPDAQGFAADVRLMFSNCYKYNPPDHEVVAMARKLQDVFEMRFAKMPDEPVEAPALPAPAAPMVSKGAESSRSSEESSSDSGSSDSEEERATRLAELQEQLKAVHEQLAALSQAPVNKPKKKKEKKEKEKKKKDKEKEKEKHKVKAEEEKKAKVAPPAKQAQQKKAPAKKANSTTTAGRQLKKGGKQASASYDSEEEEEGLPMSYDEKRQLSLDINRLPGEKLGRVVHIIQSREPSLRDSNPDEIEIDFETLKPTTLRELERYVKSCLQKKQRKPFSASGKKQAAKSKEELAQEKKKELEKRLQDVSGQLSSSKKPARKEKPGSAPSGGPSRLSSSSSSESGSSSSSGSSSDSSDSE
- Run Description: Binding affinity to first bromodomain of BRD3 assessed as change in melting temperature at 100 uM by differential scanning fluorimetry
Give me the value, and tack the unit on after it.

In plain terms, "CCOc1cc(C(=O)O)cc(-c2c(C)noc2C)c1" has a documented ΔTm of 2.2 °C

In plain terms, "CC(=O)c1cccc(-c2c(C)noc2C)c1" has a documented ΔTm of 2 °C

In plain terms, "Cc1noc(C)c1-c1ccccc1" has a documented ΔTm of 1.6 °C

In plain terms, "CCOc1cc(C(C)=O)cc(-c2c(C)noc2C)c1" has a documented ΔTm of 4.8 °C

In plain terms, CCOc1cc(-c2c(C)noc2C)cc(C(C)O)c1 (racemic) has a documented ΔTm of 8.5 °C

In plain terms, "CCOC(=O)c1cc(OCC)cc(-c2c(C)noc2C)c1" has a documented ΔTm of 3.6 °C

In plain terms, "CCOc1cccc(-c2c(C)noc2C)c1" has a documented ΔTm of 2.7 °C

In plain terms, "Cc1noc(C)c1-c1ccc2c(c1)CN(C)C(=O)N2" has a documented ΔTm of 7.2 °C

In plain terms, Cc1noc(C)c1-c1cccc(C(C)O)c1 (racemic) has a documented ΔTm of 5.3 °C

* * *

What ΔTm was measured for each of the following?
- Target Under Test: Bromodomain-containing protein 4 (Homo sapiens)
- Run Description: Binding affinity to first bromodomain of BRD4 assessed as change in melting temperature at 100 uM by differential scanning fluorimetry
The reply should be a number in °C, with the unit left off.

In plain terms, "CC(=O)c1cccc(-c2c(C)noc2C)c1" has a documented ΔTm of 2.1

In plain terms, CCOc1cc(-c2c(C)noc2C)cc(C(C)O)c1 (racemic) has a documented ΔTm of 8.5

In plain terms, "CCOc1cc(C(=O)O)cc(-c2c(C)noc2C)c1" has a documented ΔTm of 2.3

In plain terms, Cc1noc(C)c1-c1cccc(C(C)O)c1 (racemic) has a documented ΔTm of 5.4

* * *

- Target Under Test: Bromodomain testis-specific protein (Homo sapiens)
- Run Description: Binding affinity to BRDT assessed as change in melting temperature at 100 uM by differential scanning fluorimetry
Result Type: ΔTm (°C)
The reply should be a number in °C, with the unit left off.

In plain terms, "CCOC(=O)c1cc(OCC)cc(-c2c(C)noc2C)c1" has a documented ΔTm of 1.1

In plain terms, "Cc1noc(C)c1-c1ccccc1" has a documented ΔTm of 0

In plain terms, CCOc1cc(-c2c(C)noc2C)cc(C(C)O)c1 (racemic) has a documented ΔTm of 3.5

In plain terms, Cc1noc(C)c1-c1cccc(C(C)O)c1 (racemic) has a documented ΔTm of 1.6
